Cited source: PubChem BioAssay (NCI)

Assay: NCI Yeast Anticancer Drug Screen. Data for the cln2 rad14 strain (AID 165);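 also: 0% = growth equal to vehicle treated cultures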
Details: S. cerevisiae cln2 rad14 strain, at 50.0 µM, hits give high values
Compounds without any hit were thinned out: in the full panel of roughly 79,000, 15% have a hit.
Can you tell me growth inhibition for the items I'm about to list?
Answers are plain numbers, in %.

Solved cases below.
- Compound: "O=C(NCCN1CCOCC1)C1(O)N=C(c2ccccc2)c2ccsc2-n2cccc21 (stereo not drawn)"
  growth inhibition / %: -6.05
- Compound: "C=C(C)[C@H]1CN[C@H](C(=O)O)[C@H]1CC(=O)O"
  growth inhibition / %: -19.9
- Compound: "O=C(O)C1C2C=Cc3ccccc3C21 (stereo not drawn)"
  growth inhibition / %: -26.6
- Compound: "CCO[C@@H]1c2cc3c(cc2[C@@H](c2cc(OC)c(O)c(OC)c2)[C@H]2C(=O)OC[C@@H]21)OCO3"
  growth inhibition / %: 85.2
- Compound: "CCC[CH2][Sn]1([CH2]CCC)[O]C(=O)CN=C(C)c2ccccc2[O]1"
  growth inhibition / %: 45.5
- Compound: "CCN(CCCl)c1cc(C(N)=O)c([N+](=O)[O-])cc1[N+](=O)[O-]"
  growth inhibition / %: 3.8
- Compound: "CC1CCCN(C(c2ccccc2)C(O)c2ccccc2)C1 (stereo not drawn)"
  growth inhibition / %: -19.4
- Compound: "N#CC(c1ccccc1)N1CCCN(C(C#N)c2ccccc2)C1c1ccc(N(CCCl)CCCl)cc1 (stereo not drawn)"
  growth inhibition / %: -17.3

Provide each entry's growth inhibition from the list below.
1. O=C(O)c1ccccc1O.[Cu]
2. CN1CN(c2ccccc2)C2(CCN(CCCSc3ccccc3NC(=O)/C=C/c3ccccc3)CC2)C1=O
3. NC(=Nc1ccccc1)N/N=C/c1c[nH]c2ccccc12
4. Cc1ccc(N=P(c2ccccc2)(c2ccccc2)c2ccccc2)cc1.[Br][Hg][Br]
5. O=C1NC(=O)C(=C2C(=O)COC2=O)C(=O)N1
6. CC(Cl)(Cl)[N+](=O)[O-]
7. COP(=O)(NC12CC3CC(CC(C3)C1)C2)OC
8. CN(C)c1ccc(N=Nc2c([O-])ccc3ccccc23)cc1.[C-]#[O+].[C-]#[O+].[Ir]

Output:
1. -3.85
2. 18.9
3. 3.45
4. 98.3
5. -1.7
6. -60.1
7. 15.7
8. 34
